B1: Chromodomain-helicase-DNA-binding protein 4, residues 444 to 496; numbered along this chain, Q14839 (parent)
chain: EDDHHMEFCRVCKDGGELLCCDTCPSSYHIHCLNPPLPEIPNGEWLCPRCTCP

Variants of: B1
Experimental details: abundance fitness (aPCA) (normalised: wild type 0, dead -1); higher = more abundant; growth selection in yeast, the domain comes from the species named
Condition info: Homo sapiens
Observation type: abundance fitness
Hey, just send me the number, nothing else.

Lab note: measured abundance fitness of P48G was -0.284

Lab note: measured abundance fitness of P38L was -0.115

Lab note: measured abundance fitness of K13V was -0.303

Lab note: measured abundance fitness of E1V was -0.059

Lab note: measured abundance fitness of T23L was -0.195

Lab note: measured abundance fitness of S26F was -0.039

Lab note: measured abundance fitness of S26M was 0.132

Lab note: measured abundance fitness of D14H was -0.18

Lab note: measured abundance fitness of N42Q was 0.005

Lab note: measured abundance fitness of H5F was 0.219

Lab note: measured abundance fitness of E17L was -0.535

Lab note: measured abundance fitness of H31A was -0.138

Lab note: measured abundance fitness of N34M was -0.127

Lab note: measured abundance fitness of N34H was -0.262

Lab note: measured abundance fitness of C9Q was -0.668

Lab note: measured abundance fitness of G43N was -0.068

Lab note: measured abundance fitness of T23K was -0.031

Lab note: measured abundance fitness of T51E was 0.074

Lab note: measured abundance fitness of L33S was -0.54

Lab note: measured abundance fitness of R49F was -0.089

Lab note: measured abundance fitness of D2W was -0.334

Lab note: measured abundance fitness of K13N was -0.199
